pIC50: −log10 of the molar value.
Quick record of pIC50 values for Vasopressin V1a receptor (Homo sapiens, UniProt P37288).
Attribute measured: pIC50

[a] Cc1ccccc1C(=O)Nc1ccc(C(=O)N2Cc3sccc3Cc3ccccc32)cc1
[b] O=C(Nc1ccc(C(=O)N2Cc3sccc3Cc3ccccc32)cc1)c1ccc(Cl)cc1Cl
Which entry has a larger number for pIC50, a or b ? Mark your selection by writing its label.
a

====

Study system: Vasopressin V2 receptor (Homo sapiens, UniProt P30518)
Sequence (P30518 whole entry): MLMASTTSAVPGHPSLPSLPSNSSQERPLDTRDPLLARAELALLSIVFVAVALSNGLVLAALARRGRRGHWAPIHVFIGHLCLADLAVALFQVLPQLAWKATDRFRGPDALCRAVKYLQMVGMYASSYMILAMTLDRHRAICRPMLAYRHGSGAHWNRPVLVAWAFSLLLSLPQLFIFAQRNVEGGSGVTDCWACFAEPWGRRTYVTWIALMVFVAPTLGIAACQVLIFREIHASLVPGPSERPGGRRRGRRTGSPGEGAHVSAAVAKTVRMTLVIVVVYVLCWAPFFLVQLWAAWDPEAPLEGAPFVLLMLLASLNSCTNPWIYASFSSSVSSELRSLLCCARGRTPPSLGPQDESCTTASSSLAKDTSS
Assay: In vitro inhibition of [3H]AVP binding to human V2 receptor from murine fibroblast cell line (LV2)
Format: cell-based
pIC50: −log10 of the molar value.
Attribute measured: pIC50

[1] Cc1ccc(F)cc1C(=O)Nc1ccc(C(=O)N2Cc3sccc3Cc3ccccc32)c(Cl)c1
[2] O=C(Nc1ccc(C(=O)N2Cc3sccc3Cc3ccccc32)cc1)c1ccc(Cl)cc1Cl
[3] Cc1ccccc1C(=O)Nc1ccc(C(=O)N2Cc3sccc3Cc3ccccc32)cc1
Returns the items ordered by pIC50, from maximum to minimum. # answer = labels listed in requested order
3, 1, 2
(3: 9.15, 1: 8.17, 2: 7.72)
